target: benzodiazepine receptors; assay: Displacement of 3H-flunitrazepam binding in vitro (rat forebrain); conditions: 3H-flunitrazepam 1.0 nM, 0° C.
Consider the following molecules and their measured IC50 in vitro, inhibition of 3H-flunitrazepam binding readings.
Result type: IC50 in vitro, inhibition of 3H-flunitrazepam binding (µg/mL)

{"columns": ["Molecule", "Operator", "Observed value"],
 "data": [
  ["CN1CCN(C(=O)c2cc3c(cn2)[nH]c2ccccc23)CC1", ">", 4],
  ["O=C(c1cc2c(cn1)[nH]c1ccccc12)N1CCCC1", "=", 3.3],
  ["O=C(c1cc2c(cn1)[nH]c1ccccc12)N1CCCCC1", "=", 0.36],
  ["O=C(NCc1ccccc1)c1cc2c(cn1)[nH]c1ccccc12", "=", 0.017],
  ["O=C(NCCO)c1cc2c(cn1)[nH]c1ccccc12", "=", 0.2],
  ["O=C(NC1CC1)c1cc2c(cn1)[nH]c1ccccc12 [NH(C3 H5), N'-cyclopropyl-β-carbolin-3-carboxamide]", "=", 0.044],
  ["CCCCCOC(=O)c1cc2c(cn1)[nH]c1ccccc12 [OC5 H11, n-pentyl β-carbolin-3-carboxylate]", "=", 0.012],
  ["CCN(CC)C(=O)c1cc2c(cn1)[nH]c1ccccc12", "=", 4.3],
  ["CCOC(=O)c1cc2c(cn1)[nH]c1ccccc12", "=", 0.0014],
  ["CCOC(=O)CNC(=O)c1cc2c(cn1)[nH]c1ccccc12", "=", 0.16],
  ["CNC(=O)c1cc2c(cn1)[nH]c1ccccc12 [NH(CH3), β-carbolin-3-carboxylic acid methylamide]", "=", 0.1],
  ["CN(C(=O)c1cc2c(cn1)[nH]c1ccccc12)c1ccccc1", ">", 4],
  ["CCNC(=O)c1cc2c(cn1)[nH]c1ccccc12", "=", 0.11],
  ["CCNC(=O)c1cc2c3ccccc3n(C(=O)OCC)c2cn1", "=", 0.16],
  ["NC(=O)CNC(=O)c1cc2c(cn1)[nH]c1ccccc12", "=", 0.92],
  ["CC(C)NC(=O)c1cc2c(cn1)[nH]c1ccccc12", "=", 0.15]
]}

Each recorded value in this set is attributed to patent US4371536A.
